Listing of recorded Activity of soybean GST enzyme, 1,2-epoxy-3-(p-nitrophenoxy)propane by entry.
assay-remarks: GST conjugation activity with 1,2-epoxy-3-(p-nitrophenoxy)propane (HPLC)
Format: biochemical
test-context: 0.4 mM electrophilic substrate, 4 mM glutathione, 0.1 M MOPS pH 7.0, corrected for uncatalyzed reaction
Experimental: The GST enzymes, expressed and purified as described in Example 5 were screened for their ability to metabolize a variety of substrates. […] For each enzyme, the conjugation reaction with each electrophilic substrate was performed by incubating 0.3 to 30 μg enzyme in 0.1 M MOPS (pH 7.0) containing 0.4 mM of the electrophilic substrate. […] Quantitation of metabolites were based on an assumption that the extinction coefficient of the conjugate was identical to that of the electrophilic substrate. […]
State the answer as a number, implicitly in nmol/min/mg.

Reference set (2 entries):
>>> assay_result("se1.pk0017.f5: soybean type IV GST encoded by cDNA insert in clone se1.pk0017.f5 (protein) MASLGVRPVLPPPLTSISDPPPLFDGTTRLYISYSCPYAQRVWIARNYKGLQDKINLVPINLQDRPAWYKEKVYPENKVPSLEHNGKVLGESLDLIKYVDANFEGTPLFPSDPAKKEFGEQLISHVDTFSKDLFVSLKGDAVQQASPAFEYLENALGKFDDGPFLLGQFSLVDIAYIPFVERFQIVFAEVFKHDITEGRPKLATWFEELNKLNAYTETRVDPQEIVDLFKKRFLPQQ")
0
>>> assay_result("se1.27b04: soybean type I GST encoded by cDNA insert in clone se1.27b04 (protein) MICLHEKEVDFELVPVNVFAAEHKQPPFLSKNPFGFIPVLEDGDLTLFESRAITAYVAEKFKETEPDLIRHKDAKEAALVKVWTEVESHYYEPAVSPIIYEYFVAPFQGKEPDKSVIDTNVEKLKTVLDVYEAKLSSTKYLAGDFYSLADLSHVSETHYLMQTPCASMINELPHVKAWWEDISSRPAFNKVVGGMSFGQNH")
0

Next up:
Task item: Entry under review: ssl.pk0002.f7: soybean type III GST encoded by cDNA insert in clone ss1.pk0002.f7 (protein) MADGVVLLDTWASMFGMRVRIALAEKGVEYEYKEENLRNKSPLLLQMNPIHKKIPVLIHNGKPICESAIIVQYIDEVWNDKAPILPSDPYERAQARFWVDYIDKKVYDTWRKMWLSKGEEHEAGKKEFISIFKQLEETLSDKAYYGSDTFGFLDIGLIPFYSWFYTFETYGNFKMEEECPKLVAWAKRCMQREAVSKSLS . Reported Activity of soybean GST enzyme, 1,2-epoxy-3-(p-nitrophenoxy)propane?
Reply: 10

Each recorded value in this set is attributed to patent US6168954A.
